# Lookup of reported pIC50 keyed by entry
- System: αvβ5 expressing MDA-MB-231 breast cancer cells
- methodNotes: Competitive cell-adhesion inhibition assay to vitronectin, MDA-MB-231
- Assay type: cell-based, human
- experimentalContext: n = 5 ± SEM, read-out: In cellulo IC50 MDA-MB-231
Remember the convention: pIC50 equals -log10 of concentration in molar.

See these solved cases before continuing.
{"smi": "CC(C)[C@@H]1NC(=S)[C@H](Cc2ccccc2)NC(=O)[C@H](CC(=O)O)NC(=O)CNC(=O)[C@H](CCCNC(=N)N)NC1=O", "pIC50": 9.00}
{"smi": "CC(C)[C@@H]1NC(=S)[C@@H](Cc2ccccc2)NC(=O)[C@H](CC(=O)O)NC(=O)CNC(=O)[C@H](CCCNC(=N)N)NC1=O", "pIC50": 8.40}

Problem: Given "CC(C)[C@@H]1NC(=O)[C@@H](Cc2ccccc2)NC(=S)[C@H](CC(=O)O)NC(=O)CNC(=O)[C@H](CCCNC(=N)N)NC1=O" , state its recorded pIC50.
Result: 8.38

Problem: Given "CC(C)[C@@H]1NC(=O)[C@H](Cc2ccccc2)NC(=O)[C@@H](CC(=O)O)NC(=O)CNC(=O)[C@H](CCCNC(=N)N)NC1=S" , state its recorded pIC50.
Result: 7.96
